Molecular target: Fibroblast growth factor 2 (Homo sapiens, UniProt P09038)
Sequence (P09038 143-288 limits assumed): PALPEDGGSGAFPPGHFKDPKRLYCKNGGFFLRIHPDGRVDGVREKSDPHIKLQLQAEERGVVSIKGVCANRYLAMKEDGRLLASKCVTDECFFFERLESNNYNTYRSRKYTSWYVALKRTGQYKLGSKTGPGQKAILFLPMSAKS
pKd: −log10 of the molar value.
QUANTITY MEASURED: pKd

- COMPOUND: "CC(=O)N(CC(=O)NCCO[C@H]1O[C@H](COS(=O)(=O)O)[C@@H](OS(=O)(=O)O)[C@H](OS(=O)(=O)O)[C@@H]1OS(=O)(=O)O)Cc1ccccc1"
  SYSTEM UNDER TEST: "Fibroblast growth factor 2 (Homo sapiens, UniProt P09038)"
  QUANTITY MEASURED: "pKd"
  OBSERVED MEASUREMENT: 3.54
- COMPOUND: "CCN(CC(=O)NCCO[C@H]1O[C@H](COS(=O)(=O)O)[C@@H](OS(=O)(=O)O)[C@H](OS(=O)(=O)O)[C@@H]1OS(=O)(=O)O)C(=O)CCCCCCCCCOS(=O)(=O)O"
  SYSTEM UNDER TEST: "Fibroblast growth factor 2 (Homo sapiens, UniProt P09038)"
  QUANTITY MEASURED: "pKd"
  OBSERVED MEASUREMENT: 3.80
- COMPOUND: "CCN(CC(=O)NC[C@H]1O[C@H](OC)[C@@H](OS(=O)(=O)O)[C@@H](OS(=O)(=O)O)[C@@H]1OS(=O)(=O)O)C(=O)CCCc1ccccc1"
  SYSTEM UNDER TEST: "Fibroblast growth factor 2 (Homo sapiens, UniProt P09038)"
  QUANTITY MEASURED: "pKd"
  OBSERVED MEASUREMENT: 3.40
- COMPOUND: "CCN(CC(=O)NCCO[C@H]1O[C@H](COS(=O)(=O)O)[C@@H](OS(=O)(=O)O)[C@H](OS(=O)(=O)O)[C@@H]1OS(=O)(=O)O)C(=O)CCCCC(=O)O"
  SYSTEM UNDER TEST: "Fibroblast growth factor 2 (Homo sapiens, UniProt P09038)"
  QUANTITY MEASURED: "pKd"
  OBSERVED MEASUREMENT: 3.73
- COMPOUND: "CO[C@H]1O[C@H](CNC(=O)CN(CCOS(=O)(=O)O)C(C)=O)[C@@H](OS(=O)(=O)O)[C@H](OS(=O)(=O)O)[C@@H]1OS(=O)(=O)O"
  SYSTEM UNDER TEST: "Fibroblast growth factor 2 (Homo sapiens, UniProt P09038)"
  QUANTITY MEASURED: "pKd"
  OBSERVED MEASUREMENT: 3.62
- COMPOUND: "CCCCC1CCC(N(CC(=O)NC[C@H]2O[C@H](OC)[C@@H](OS(=O)(=O)O)[C@@H](OS(=O)(=O)O)[C@@H]2OS(=O)(=O)O)C(C)=O)CC1 (some centres not stated)"
  SYSTEM UNDER TEST: "Fibroblast growth factor 2 (Homo sapiens, UniProt P09038)"
  QUANTITY MEASURED: "pKd"
  OBSERVED MEASUREMENT: 3.27
- COMPOUND: "CC(=O)N(CCc1ccccc1)CC(=O)NCCO[C@H]1O[C@H](COS(=O)(=O)O)[C@@H](OS(=O)(=O)O)[C@H](OS(=O)(=O)O)[C@@H]1OS(=O)(=O)O"
  SYSTEM UNDER TEST: "Fibroblast growth factor 2 (Homo sapiens, UniProt P09038)"
  QUANTITY MEASURED: "pKd"
  OBSERVED MEASUREMENT: 3.95
- COMPOUND: "CCN(CC(=O)NC[C@H]1O[C@H](OC)[C@@H](OS(=O)(=O)O)[C@@H](OS(=O)(=O)O)[C@@H]1OS(=O)(=O)O)C(=O)CCC(=O)O"
  SYSTEM UNDER TEST: "Fibroblast growth factor 2 (Homo sapiens, UniProt P09038)"
  QUANTITY MEASURED: "pKd"
  OBSERVED MEASUREMENT: 3.54
- COMPOUND: "CCN(CC(=O)NC[C@H]1O[C@H](OC)[C@@H](OS(=O)(=O)O)[C@@H](OS(=O)(=O)O)[C@@H]1OS(=O)(=O)O)C(=O)c1ccccc1"
  SYSTEM UNDER TEST: "Fibroblast growth factor 2 (Homo sapiens, UniProt P09038)"
  QUANTITY MEASURED: "pKd"
  OBSERVED MEASUREMENT: 3.32
- COMPOUND: "CC(=O)N(CC(=O)NCCO[C@H]1O[C@H](COS(=O)(=O)O)[C@@H](OS(=O)(=O)O)[C@H](OS(=O)(=O)O)[C@@H]1OS(=O)(=O)O)c1ccccc1"
  SYSTEM UNDER TEST: "Fibroblast growth factor 2 (Homo sapiens, UniProt P09038)"
  QUANTITY MEASURED: "pKd"
  OBSERVED MEASUREMENT: 3.62
- COMPOUND: "CO[C@H]1O[C@H](CNC(=O)CN(Cc2ccccc2)C(C)=O)[C@@H](OS(=O)(=O)O)[C@H](OS(=O)(=O)O)[C@@H]1OS(=O)(=O)O"
  SYSTEM UNDER TEST: "Fibroblast growth factor 2 (Homo sapiens, UniProt P09038)"
  QUANTITY MEASURED: "pKd"
  OBSERVED MEASUREMENT: 3.72
- COMPOUND: "CCN(CC(=O)NC[C@H]1O[C@H](OC)[C@@H](OS(=O)(=O)O)[C@@H](OS(=O)(=O)O)[C@@H]1OS(=O)(=O)O)C(=O)CCCCCCCCCOS(=O)(=O)O"
  SYSTEM UNDER TEST: "Fibroblast growth factor 2 (Homo sapiens, UniProt P09038)"
  QUANTITY MEASURED: "pKd"
  OBSERVED MEASUREMENT: 3.62

====

UniProtKB P05230 Kd data
Sequence (P05230 whole entry): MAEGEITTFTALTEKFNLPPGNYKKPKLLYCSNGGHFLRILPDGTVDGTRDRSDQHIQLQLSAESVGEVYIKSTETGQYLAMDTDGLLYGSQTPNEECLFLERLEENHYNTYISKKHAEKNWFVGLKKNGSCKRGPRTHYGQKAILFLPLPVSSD

- COMPOUND: "CO[C@H]1O[C@H](CNC(=O)CN(C(C)=O)C2CCCCCCCCCCC2)[C@@H](OS(=O)(=O)O)[C@H](OS(=O)(=O)O)[C@@H]1OS(=O)(=O)O"
  VALUE UNITS: "µM"
  Kd: 265
- COMPOUND: "CCN(CC(=O)NC[C@H]1O[C@H](OC)[C@@H](OS(=O)(=O)O)[C@@H](OS(=O)(=O)O)[C@@H]1OS(=O)(=O)O)C(=O)CCCCCCCCCOS(=O)(=O)O"
  VALUE UNITS: "µM"
  Kd: 111
- COMPOUND: "CC(=O)N(CC(=O)NCCO[C@H]1O[C@H](COS(=O)(=O)O)[C@@H](OS(=O)(=O)O)[C@H](OS(=O)(=O)O)[C@@H]1OS(=O)(=O)O)c1ccccc1"
  VALUE UNITS: "µM"
  Kd: 97
- COMPOUND: "CCCCC1CCC(N(CC(=O)NC[C@H]2O[C@H](OC)[C@@H](OS(=O)(=O)O)[C@@H](OS(=O)(=O)O)[C@@H]2OS(=O)(=O)O)C(C)=O)CC1 (some centres undefined)"
  VALUE UNITS: "µM"
  Kd: 243
- COMPOUND: "O=C(CNC(=O)Cc1cccc(Cl)c1)NCCO[C@H]1O[C@H](COS(=O)(=O)O)[C@@H](OS(=O)(=O)O)[C@H](OS(=O)(=O)O)[C@@H]1OS(=O)(=O)O"
  VALUE UNITS: "µM"
  Kd: 170
- COMPOUND: "CCN(CC(=O)NC[C@H]1O[C@H](OC)[C@@H](OS(=O)(=O)O)[C@@H](OS(=O)(=O)O)[C@@H]1OS(=O)(=O)O)C(=O)CCC(=O)O"
  VALUE UNITS: "µM"
  Kd: 338
- COMPOUND: "CO[C@H]1O[C@H](CNC(=O)CN(CCOS(=O)(=O)O)C(C)=O)[C@@H](OS(=O)(=O)O)[C@H](OS(=O)(=O)O)[C@@H]1OS(=O)(=O)O"
  VALUE UNITS: "µM"
  Kd: 95
- COMPOUND: "CO[C@H]1O[C@H](CNC(=O)CN(CCc2ccccc2)C(C)=O)[C@@H](OS(=O)(=O)O)[C@H](OS(=O)(=O)O)[C@@H]1OS(=O)(=O)O"
  VALUE UNITS: "µM"
  Kd: 224
- COMPOUND: "CCN(CC(=O)NC[C@H]1O[C@H](OC)[C@@H](OS(=O)(=O)O)[C@@H](OS(=O)(=O)O)[C@@H]1OS(=O)(=O)O)C(=O)c1ccccc1"
  VALUE UNITS: "µM"
  Kd: 366

====

Reported pKd by item:
Biological target: Vascular endothelial growth factor A, long form (Homo sapiens)
Sequence (P15692 whole entry): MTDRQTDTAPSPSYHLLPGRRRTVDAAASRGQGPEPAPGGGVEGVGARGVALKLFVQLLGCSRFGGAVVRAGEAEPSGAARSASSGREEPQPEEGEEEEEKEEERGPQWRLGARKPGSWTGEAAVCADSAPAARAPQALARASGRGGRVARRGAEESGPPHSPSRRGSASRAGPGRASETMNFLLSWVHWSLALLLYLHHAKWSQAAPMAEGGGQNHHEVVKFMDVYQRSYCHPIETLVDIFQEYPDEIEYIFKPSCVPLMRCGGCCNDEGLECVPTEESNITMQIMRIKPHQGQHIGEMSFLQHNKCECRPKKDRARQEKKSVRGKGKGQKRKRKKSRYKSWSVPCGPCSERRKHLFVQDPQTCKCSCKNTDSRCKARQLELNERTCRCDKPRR
pKd: −log10 of the molar value.

- COMPOUND SMILES: "CCN(CC(=O)NC[C@H]1O[C@H](OC)[C@@H](OS(=O)(=O)O)[C@@H](OS(=O)(=O)O)[C@@H]1OS(=O)(=O)O)C(=O)CCc1ccccc1"
  SYSTEM UNDER TEST: "Vascular endothelial growth factor A, long form (Homo sapiens)"
  pKd: 3.22
- COMPOUND SMILES: "CO[C@H]1O[C@H](CNC(=O)CN(C(C)=O)C2CCCCCCCCCCC2)[C@@H](OS(=O)(=O)O)[C@H](OS(=O)(=O)O)[C@@H]1OS(=O)(=O)O"
  SYSTEM UNDER TEST: "Vascular endothelial growth factor A, long form (Homo sapiens)"
  pKd: 2.92
- COMPOUND SMILES: "O=C(CNC(=O)Cc1cccc(Cl)c1)NCCO[C@H]1O[C@H](COS(=O)(=O)O)[C@@H](OS(=O)(=O)O)[C@H](OS(=O)(=O)O)[C@@H]1OS(=O)(=O)O"
  SYSTEM UNDER TEST: "Vascular endothelial growth factor A, long form (Homo sapiens)"
  pKd: 4.04
- COMPOUND SMILES: "CO[C@H]1O[C@H](CNC(=O)CN(Cc2ccccc2)C(C)=O)[C@@H](OS(=O)(=O)O)[C@H](OS(=O)(=O)O)[C@@H]1OS(=O)(=O)O"
  SYSTEM UNDER TEST: "Vascular endothelial growth factor A, long form (Homo sapiens)"
  pKd: 4.11
- COMPOUND SMILES: "CO[C@H]1O[C@H](COS(=O)(=O)O)[C@@H](OS(=O)(=O)O)[C@H](OS(=O)(=O)O)[C@@H]1OS(=O)(=O)O"
  SYSTEM UNDER TEST: "Vascular endothelial growth factor A, long form (Homo sapiens)"
  pKd: 3.70
